target: Bovine Pancreatic Chymotrypsin (Bos taurus)
Ki values, listed per item

Here is how some molecules turned out for Ki.
{"cpd_smiles": "N=C(N)c1cccc(S(=O)(=O)NCc2ccc(OCCCCOc3ccc(CNS(=O)(=O)c4cccc(C(=N)N)c4)cc3)cc2)c1", "recorded_result": "> 100 µM"}
{"cpd_smiles": "N=C(N)c1ccc(C(=O)NCc2cccc(OCCCCCOc3cccc(CNC(=O)c4ccc(C(=N)N)cc4)c3)c2)cc1", "recorded_result": "> 100 µM"}
{"cpd_smiles": "N=C(N)c1ccc(C(=O)NCc2ccc(OCC3(COc4ccc(CNC(=O)c5ccc(C(=N)N)cc5)cc4)CCC3)cc2)cc1", "recorded_result": "> 100 µM"}
{"cpd_smiles": "N=C(N)c1cccc(S(=O)(=O)NCc2ccc(OCCOc3ccc(CNS(=O)(=O)c4cccc(C(=N)N)c4)cc3)cc2)c1", "recorded_result": "> 100 µM"}

State, for Bovine Pancreatic Chymotrypsin (Bos taurus), measured Ki of the molecule listed here: `N=C(N)c1ccc(C(=O)NCc2ccc(OCCCCCCOc3ccc(CNC(=O)c4ccc(C(=N)N)cc4)cc3)cc2)cc1`
> 100 µM

Jot down Ki (Bovine Pancreatic Chymotrypsin (Bos taurus)) of `CN(Cc1ccc(OCCCOc2ccc(CN(C)S(=O)(=O)c3cccc(C(=N)N)c3)cc2)cc1)S(=O)(=O)c1cccc(C(=N)N)c1` .
> 100 µM

Fill in Ki for `N=C(N)c1ccc(S(=O)(=O)NCc2ccc(OCCCOc3ccc(CNS(=O)(=O)c4ccc(C(=N)N)cc4)cc3)cc2)cc1` tested with Bovine Pancreatic Chymotrypsin (Bos taurus).
6.3 µM

Write down the reported Ki (system: Bovine Pancreatic Chymotrypsin (Bos taurus)) of `N=C(N)c1cccc(C(=O)NCc2cccc(OCCCCCOc3cccc(CNC(=O)c4cccc(C(=N)N)c4)c3)c2)c1`
> 100 µM

Please respond with reported Ki (system Bovine Pancreatic Chymotrypsin (Bos taurus)) for `N=C(N)c1ccc2cc(C(=O)NCc3ccc(OCCOc4ccc(CNC(=O)c5ccc6cc(C(=N)N)ccc6c5)cc4)cc3)ccc2c1` .
18 µM

---

target: Human plasma kallikrein (Homo sapiens, UniProt P03952); test: Ki determination, human plasma kallikrein (H-D-Prolyl-Phe-Arg-pNA); conditions: 50 mM Tris-HCl, pH 7.8, 200 mM NaCl, 0.05% BSA; read-out: Experimentally Determined Ki, Plasma Kallikrein
Sequence (P03952 391-638 limits assumed): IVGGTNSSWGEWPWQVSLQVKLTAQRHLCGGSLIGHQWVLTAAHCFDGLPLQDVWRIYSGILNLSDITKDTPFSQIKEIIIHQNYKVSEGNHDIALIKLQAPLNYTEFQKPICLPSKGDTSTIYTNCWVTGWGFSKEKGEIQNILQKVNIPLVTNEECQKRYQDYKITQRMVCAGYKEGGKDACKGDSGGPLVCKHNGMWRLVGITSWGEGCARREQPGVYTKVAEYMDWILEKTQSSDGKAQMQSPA
Sequence (P03952 20-390 partner limits assumed): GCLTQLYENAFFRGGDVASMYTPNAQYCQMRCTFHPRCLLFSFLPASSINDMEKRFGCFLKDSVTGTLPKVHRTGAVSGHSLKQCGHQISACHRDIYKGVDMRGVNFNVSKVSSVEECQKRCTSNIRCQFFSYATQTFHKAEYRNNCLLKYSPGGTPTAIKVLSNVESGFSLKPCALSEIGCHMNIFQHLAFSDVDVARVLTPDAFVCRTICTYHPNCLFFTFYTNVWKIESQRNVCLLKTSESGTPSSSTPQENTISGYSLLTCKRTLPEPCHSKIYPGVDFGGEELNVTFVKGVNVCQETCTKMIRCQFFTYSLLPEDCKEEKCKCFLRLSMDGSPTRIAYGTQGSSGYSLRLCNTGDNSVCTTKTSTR
Reported log10(Ki) is given for each of the following compounds.
On a log10 scale: recorded Ki, unit µM.

{"compound": "N=C(N)c1cccc(S(=O)(=O)NCc2ccc(OCCCOc3ccc(CNS(=O)(=O)c4cccc(C(=N)N)c4)cc3)cc2)c1 [Example 49]", "system_under_test": "Human plasma kallikrein (Homo sapiens, UniProt P03952)", "experimental_readout": "log10(Ki)", "recorded_result": 0.78}
{"compound": "N=C(N)c1ccc(C(=O)NCc2ccc(COCc3ccc(CNC(=O)c4ccc(C(=N)N)cc4)cc3)cc2)cc1 [Example 66]", "system_under_test": "Human plasma kallikrein (Homo sapiens, UniProt P03952)", "experimental_readout": "log10(Ki)", "recorded_result": -0.15}
{"compound": "N=C(N)c1ccc2[nH]c(CC(=O)NCc3ccc(OCCCOc4ccc(CNC(=O)Cc5nc6cc(C(=N)N)ccc6[nH]5)cc4)cc3)nc2c1 [Example 107]", "system_under_test": "Human plasma kallikrein (Homo sapiens, UniProt P03952)", "experimental_readout": "log10(Ki)", "recorded_result": 1.08}
{"compound": "CN(Cc1ccc(OCCCOc2ccc(CN(C)S(=O)(=O)c3cccc(C(=N)N)c3)cc2)cc1)S(=O)(=O)c1cccc(C(=N)N)c1 [Example 68]", "system_under_test": "Human plasma kallikrein (Homo sapiens, UniProt P03952)", "experimental_readout": "log10(Ki)", "recorded_result": 0.63}

Consider the record given below.
Quickly give me recorded log10(Ki) for N=C(N)c1ccc(C(=O)NCc2ccc(OCCCCCOc3ccc(CNC(=O)c4ccc(C(=N)N)cc4)cc3)cc2)cc1 [Example 54]
1.20
